assay: chemical genetic growth profiling, strain panel (AID 1159580);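 note: tested at 20 µM; growth read once vehicle control cultures reached saturation at 30 °C; 1 = growth at the plate median or of vehicle wells; lower values mean less growth of the strain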; details: S. cerevisiae deletion strains, growth OD, locus YEL037C, strain rad23, hits give low values
Hit rate of the full screen: of about 5,500 compounds, about 2,000 (36%) were called active. Inconclusive results (about 18%) are left out. The list shows a part of the results.
reported_endpoint: normalized growth
The response must contain the number and no unit.

query: Which normalized growth value is on record for Oc1cc(O)c2c(c1)O[C@H](c1ccc(O)c(O)c1)[C@@H](O)C2 ?
result: 1.01

query: Which normalized growth value is on record for C=C1C2CC[C@@]3(C)[C@H](c4ccoc4)OC(=O)C[C@]13O[C@H]1CC(=O)C(C)(C)[C@H](C(OC(C)=O)C(=O)OC)[C@@]21C (stereo partly specified) ?
result: 1.01

query: Which normalized growth value is on record for CC(C)NCC(O)COc1cccc2[nH]ccc12 (stereo unspecified) ?
result: 1.01

query: Which normalized growth value is on record for COc1cc([C@@H]2c3cc4c(cc3C(OC3O[C@@H]5COC(C)O[C@H]5[C@H](O)[C@H]3O)C3COC(=O)[C@@H]32)OCO4)cc(OC)c1O (stereo partly specified) ?
result: 1.05

query: Which normalized growth value is on record for CCCCC/C=C/CCC(=O)N[C@H]1[C@H](Oc2c3cc4cc2Oc2ccc(cc2Cl)[C@@H](O[C@@H]2O[C@H](CO)[C@@H](O)[C@H](O)[C@H]2NC(C)=O)[C@@H]2NC(=O)[C@H](NC(=O)[C@@H]4NC(=O)[C@H]4NC(=O)C(Cc5ccc(c(Cl)c5)O3)NC(=O)[C@H](N)c3ccc(O)c(c3)Oc3cc(O)cc4c3)c3ccc(O)c(c3)-c3c(OC4O[C@H](CO)[C@@H](O)[C@H](O)[C@@H]4O)cc(O)cc3[C@@H](C(=O)O)NC2=O)O[C@H](CO)[C@@H](O)[C@@H]1O (stereo partly specified) ?
result: 1.05

query: Which normalized growth value is on record for COc1cc([C@@H]2c3cc4c(cc3[C@@H](O)C3COC(=O)C32)OCO4)cc(OC)c1O (stereo partly specified) ?
result: 0.981

* * *

test: chemical genetic growth profiling, strain panel (AID 1159580);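 note: tested at 20 µM; growth read once vehicle control cultures reached saturation at 30 °C; 1 = growth at the plate median or of vehicle wells; lower values mean less growth of the strain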; conditions: S. cerevisiae deletion strains, growth OD, locus YPL106C, strain sse1, hits give low values
The whole screen tested about 5,500 compounds, of which about 2,000 (36%) were called active. Roughly 18% stayed inconclusive and do not appear here. Some of the results follow.
reported_endpoint: normalized growth
The response must contain the number and no unit.

query: Which normalized growth value is on record for CCCCC/C=C/CCC(=O)N[C@H]1[C@H](Oc2c3cc4cc2Oc2ccc(cc2Cl)[C@@H](O[C@@H]2O[C@H](CO)[C@@H](O)[C@H](O)[C@H]2NC(C)=O)[C@@H]2NC(=O)[C@H](NC(=O)[C@@H]4NC(=O)[C@H]4NC(=O)C(Cc5ccc(c(Cl)c5)O3)NC(=O)[C@H](N)c3ccc(O)c(c3)Oc3cc(O)cc4c3)c3ccc(O)c(c3)-c3c(OC4O[C@H](CO)[C@@H](O)[C@H](O)[C@@H]4O)cc(O)cc3[C@@H](C(=O)O)NC2=O)O[C@H](CO)[C@@H](O)[C@@H]1O (stereo partly drawn) ?
result: 0.971

query: Which normalized growth value is on record for Cc1ccc(C(=O)Nc2ccc(S(=O)(=O)O)c3cc(S(=O)(=O)O)cc(S(=O)(=O)O)c23)cc1NC(=O)c1cccc(NC(=O)Nc2cccc(C(=O)Nc3cc(C(=O)Nc4ccc(S(=O)(=O)O)c5cc(S(=O)(=O)O)cc(S(=O)(=O)O)c45)ccc3C)c2)c1 ?
result: 1.01

query: Which normalized growth value is on record for CN1CCC(OC(c2ccccc2)c2ccccc2)CC1 ?
result: 0.985
